Assay target: biotinylated Gβ1γ2 mutant Asp246Ser (rat) (UniProt P54311)
Sequence (P54311 whole entry D246S, chain 1 of 2): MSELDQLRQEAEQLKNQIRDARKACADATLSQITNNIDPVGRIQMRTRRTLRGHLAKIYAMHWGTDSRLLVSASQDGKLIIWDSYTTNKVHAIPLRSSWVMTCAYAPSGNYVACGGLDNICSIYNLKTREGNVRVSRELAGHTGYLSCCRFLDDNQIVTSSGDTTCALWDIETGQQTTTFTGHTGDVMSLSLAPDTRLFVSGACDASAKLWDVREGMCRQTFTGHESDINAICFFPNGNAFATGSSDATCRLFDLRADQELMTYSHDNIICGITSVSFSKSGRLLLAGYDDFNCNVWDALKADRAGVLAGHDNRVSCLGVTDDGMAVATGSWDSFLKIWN
Sequence (P63212 2-68, chain 2 of 2, further chain): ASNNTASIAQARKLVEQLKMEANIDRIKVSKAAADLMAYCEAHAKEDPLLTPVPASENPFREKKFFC
Method description: phage ELISA, % of wild-type b-βγ
Measured parameter: % of Wild-Type Signal (%)
One number for each entry, in %.

Would you please look over these solved cases?
SCGHGLKVQSTIGACA (Group II) [phage 3C (SCGHGLKVQSTIGACA)]    2
SCKRTKAQILLAPCT (Group I; also called Cl) [phage C1 (SCKRTKAQILLAPCT)]    2.3
WCPPKAMTQLGIKAC (Group II) [phage C14 (WCPPKAMTQLGIKAC)]    6.3

stdin: State the recorded % of Wild-Type Signal for this entry: WCPPKLEQWYDGCA (Group IV) [phage C2 (WCPPKLEQWYDGCA)]
stdout: 5.9
